Please go through the items and note down their AC50.
# target or system: Cytochrome P450 2D6 (Homo sapiens, UniProt P10635);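 note: CYP2D6 member of a cytochrome P450 panel assay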
# Sequence (P10635 whole entry): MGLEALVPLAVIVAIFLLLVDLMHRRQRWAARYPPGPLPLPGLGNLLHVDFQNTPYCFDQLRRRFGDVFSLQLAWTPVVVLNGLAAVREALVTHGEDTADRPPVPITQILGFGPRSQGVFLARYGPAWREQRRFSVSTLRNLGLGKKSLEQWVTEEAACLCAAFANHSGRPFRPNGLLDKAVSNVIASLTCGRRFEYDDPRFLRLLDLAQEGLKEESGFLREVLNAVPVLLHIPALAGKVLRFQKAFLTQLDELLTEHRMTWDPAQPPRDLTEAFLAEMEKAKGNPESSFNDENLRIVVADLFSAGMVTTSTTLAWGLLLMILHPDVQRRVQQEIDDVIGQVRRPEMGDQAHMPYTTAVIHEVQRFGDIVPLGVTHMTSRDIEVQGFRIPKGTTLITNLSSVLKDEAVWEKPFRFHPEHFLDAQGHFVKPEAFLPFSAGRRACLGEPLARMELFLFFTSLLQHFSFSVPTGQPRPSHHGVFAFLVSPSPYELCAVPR

Given COc1cccc(Nc2ncc3ncc(=O)n(Cc4cccs4)c3n2)c1 , state its recorded AC50.
3.98 µM (inconclusive)

Another: COc1ccccc1N1CCN(Cc2cc(=O)n3ccsc3n2)CC1
22.4 µM (inconclusive)

Next molecule: O=C1C(Cl)=C(Sc2nnc3c4ccccc4c4ccccc4c3n2)C(=O)c2ccccc21
3.98 µM (inconclusive)

Same lookup for COC(=O)c1ccc(CSc2nc3cc(Cl)ccc3s2)o1 , please.
20 µM (inconclusive)

How about Cc1cc(C)n2nc(-c3sccc3-n3cccc3)cc2n1 ?
35.5 µM (inconclusive)

Request: COc1cccc(OC)c1OCCCCN1CCCC1
14.1 µM (inconclusive)

Request: COC(=O)N1CCC2(CCCN(Cc3nccs3)C2)CC1
12.6 µM (inconclusive)

Repeat with Cc1c(/C=C2\SC(=O)N(CC(=O)Nc3ccc4c(c3)OCO4)C2=O)c2ccccc2n1C
2.82 µM (inconclusive)

Also check CS(=O)(=O)Nc1ccc(Nc2c3ccccc3nc3ccccc23)cc1
3.16 µM (inconclusive)

Okay, and Clc1ccc(Sc2ccc(/C=N/n3cnnc3)o2)cc1 ?
15.8 µM (inconclusive)

Same question for CCOC(=O)Nc1ccc(S(=O)(=O)NCc2ccccc2)cc1 please.
14.1 µM (inconclusive)

* * *

# target or system: Voltage-gated N-type calcium channel alpha-1B subunit/Amyloid beta A4 precursor protein-binding family A member 1 (Homo sapiens, UniProt Q00975+Q02410)
# Sequence (Q00975 whole entry): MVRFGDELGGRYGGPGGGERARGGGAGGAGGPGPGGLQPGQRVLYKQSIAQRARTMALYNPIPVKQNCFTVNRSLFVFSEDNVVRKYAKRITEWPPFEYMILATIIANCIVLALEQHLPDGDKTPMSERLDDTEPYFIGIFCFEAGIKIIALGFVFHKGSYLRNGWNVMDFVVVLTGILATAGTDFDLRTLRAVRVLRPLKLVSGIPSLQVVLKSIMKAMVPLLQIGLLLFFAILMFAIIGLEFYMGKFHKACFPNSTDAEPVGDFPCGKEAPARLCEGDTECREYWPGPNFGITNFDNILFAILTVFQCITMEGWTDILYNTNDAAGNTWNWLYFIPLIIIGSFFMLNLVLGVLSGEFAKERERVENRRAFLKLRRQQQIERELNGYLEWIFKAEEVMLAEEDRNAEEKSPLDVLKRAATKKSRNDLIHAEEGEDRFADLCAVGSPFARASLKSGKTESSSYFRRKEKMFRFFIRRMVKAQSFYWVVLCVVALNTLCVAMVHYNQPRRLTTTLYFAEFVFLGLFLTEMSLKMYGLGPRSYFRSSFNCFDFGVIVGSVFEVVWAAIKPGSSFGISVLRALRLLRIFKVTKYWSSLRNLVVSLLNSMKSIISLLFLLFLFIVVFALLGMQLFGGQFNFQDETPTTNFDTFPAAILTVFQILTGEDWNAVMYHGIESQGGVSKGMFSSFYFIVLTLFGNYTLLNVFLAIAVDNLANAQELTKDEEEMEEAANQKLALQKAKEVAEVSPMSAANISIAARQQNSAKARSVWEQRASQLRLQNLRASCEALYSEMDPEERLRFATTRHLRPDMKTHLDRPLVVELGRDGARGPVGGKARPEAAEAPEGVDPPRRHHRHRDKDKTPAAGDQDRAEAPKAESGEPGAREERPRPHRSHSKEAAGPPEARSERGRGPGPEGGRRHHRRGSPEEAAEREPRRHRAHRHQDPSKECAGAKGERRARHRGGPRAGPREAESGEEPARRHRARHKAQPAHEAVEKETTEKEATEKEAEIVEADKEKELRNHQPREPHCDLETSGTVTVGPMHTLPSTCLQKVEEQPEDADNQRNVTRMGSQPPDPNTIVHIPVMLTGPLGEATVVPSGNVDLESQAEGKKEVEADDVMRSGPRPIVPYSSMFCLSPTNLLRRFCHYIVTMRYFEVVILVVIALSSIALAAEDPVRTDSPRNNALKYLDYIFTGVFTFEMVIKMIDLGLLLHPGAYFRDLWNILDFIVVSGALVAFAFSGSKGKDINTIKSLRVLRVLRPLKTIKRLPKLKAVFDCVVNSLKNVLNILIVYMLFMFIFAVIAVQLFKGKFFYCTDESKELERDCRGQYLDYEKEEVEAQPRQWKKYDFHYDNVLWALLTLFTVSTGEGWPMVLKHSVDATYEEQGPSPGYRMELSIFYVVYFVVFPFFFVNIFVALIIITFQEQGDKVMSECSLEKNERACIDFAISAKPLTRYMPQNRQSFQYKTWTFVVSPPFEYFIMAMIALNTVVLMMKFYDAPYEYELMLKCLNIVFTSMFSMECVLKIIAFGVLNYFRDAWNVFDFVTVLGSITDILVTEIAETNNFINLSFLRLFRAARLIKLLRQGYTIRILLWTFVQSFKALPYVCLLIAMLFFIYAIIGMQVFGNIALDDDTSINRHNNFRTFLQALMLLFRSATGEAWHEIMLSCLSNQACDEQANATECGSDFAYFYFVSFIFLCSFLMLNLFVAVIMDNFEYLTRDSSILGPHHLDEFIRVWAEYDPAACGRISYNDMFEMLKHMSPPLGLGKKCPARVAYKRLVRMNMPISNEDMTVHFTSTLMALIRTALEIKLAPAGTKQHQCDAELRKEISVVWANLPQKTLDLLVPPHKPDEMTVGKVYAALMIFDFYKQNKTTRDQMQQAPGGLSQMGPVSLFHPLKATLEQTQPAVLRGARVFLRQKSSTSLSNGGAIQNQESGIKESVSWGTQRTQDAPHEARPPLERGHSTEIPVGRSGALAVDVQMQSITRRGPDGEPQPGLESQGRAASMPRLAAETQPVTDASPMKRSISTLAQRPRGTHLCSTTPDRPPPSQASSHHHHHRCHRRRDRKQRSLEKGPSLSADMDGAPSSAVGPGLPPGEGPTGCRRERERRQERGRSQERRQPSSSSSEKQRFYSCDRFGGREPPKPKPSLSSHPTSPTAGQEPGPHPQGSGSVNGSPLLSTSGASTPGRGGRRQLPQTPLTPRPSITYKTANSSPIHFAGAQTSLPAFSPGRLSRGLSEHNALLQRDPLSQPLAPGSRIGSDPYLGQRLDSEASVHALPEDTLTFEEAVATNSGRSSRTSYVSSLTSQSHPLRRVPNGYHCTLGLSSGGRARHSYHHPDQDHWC
# Sequence (Q02410 whole entry): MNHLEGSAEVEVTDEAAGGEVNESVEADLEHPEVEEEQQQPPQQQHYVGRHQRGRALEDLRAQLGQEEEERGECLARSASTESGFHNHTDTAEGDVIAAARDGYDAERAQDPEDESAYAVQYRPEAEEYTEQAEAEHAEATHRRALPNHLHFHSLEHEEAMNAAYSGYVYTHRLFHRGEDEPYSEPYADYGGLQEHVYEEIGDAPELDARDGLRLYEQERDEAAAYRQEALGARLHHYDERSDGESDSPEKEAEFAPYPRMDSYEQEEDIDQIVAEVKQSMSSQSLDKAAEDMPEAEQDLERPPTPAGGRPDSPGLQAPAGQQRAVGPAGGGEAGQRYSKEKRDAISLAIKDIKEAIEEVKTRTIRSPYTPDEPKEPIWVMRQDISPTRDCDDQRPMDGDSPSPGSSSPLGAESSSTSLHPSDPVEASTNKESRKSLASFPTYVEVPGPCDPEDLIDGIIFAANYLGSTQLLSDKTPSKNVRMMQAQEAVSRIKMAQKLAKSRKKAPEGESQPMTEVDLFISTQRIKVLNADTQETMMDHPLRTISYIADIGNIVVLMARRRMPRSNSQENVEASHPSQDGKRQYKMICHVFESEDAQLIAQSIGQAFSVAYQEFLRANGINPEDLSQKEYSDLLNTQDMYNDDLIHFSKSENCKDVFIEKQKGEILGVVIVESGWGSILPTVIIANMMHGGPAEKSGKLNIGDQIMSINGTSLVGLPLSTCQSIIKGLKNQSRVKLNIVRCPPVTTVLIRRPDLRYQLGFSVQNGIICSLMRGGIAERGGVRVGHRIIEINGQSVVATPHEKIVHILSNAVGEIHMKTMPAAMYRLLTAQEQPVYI
# Type: protein assay
Activity calls are given as the source filed them.
Choose one outcome from this list and give only that: t = active, f = inactive

Record lookup: outcome of this test for CN(CCC#N)C(=O)COC(=O)c1c2c(nc3ccccc13)/C(=C/c1ccco1)CC2 ?
t

Same thing, different compound: CC(=O)Oc1ccc(/C=N\NC(=O)c2cc3c(ccc4ccccc43)o2)cc1
f

Subsequent entry: O=C(COc1ccc(/C=N/NC(=O)c2ccc(O)cc2)cc1)Nc1ccc([N+](=O)[O-])cc1
f

Cc1ccc(-c2cc(C(=O)N3CC(C)CC(C)C3)c3ccccc3n2)o1 (stereo not given) ?
t

# repeat for Cn1c2ccccc2c2cc(/C=N/NC(=O)c3cc(O)ccc3O)ccc21
t

* * *

# target or system: Genome polyprotein (dengue virus type 2)
# Sequence (P29990 2492-3391 limits assumed): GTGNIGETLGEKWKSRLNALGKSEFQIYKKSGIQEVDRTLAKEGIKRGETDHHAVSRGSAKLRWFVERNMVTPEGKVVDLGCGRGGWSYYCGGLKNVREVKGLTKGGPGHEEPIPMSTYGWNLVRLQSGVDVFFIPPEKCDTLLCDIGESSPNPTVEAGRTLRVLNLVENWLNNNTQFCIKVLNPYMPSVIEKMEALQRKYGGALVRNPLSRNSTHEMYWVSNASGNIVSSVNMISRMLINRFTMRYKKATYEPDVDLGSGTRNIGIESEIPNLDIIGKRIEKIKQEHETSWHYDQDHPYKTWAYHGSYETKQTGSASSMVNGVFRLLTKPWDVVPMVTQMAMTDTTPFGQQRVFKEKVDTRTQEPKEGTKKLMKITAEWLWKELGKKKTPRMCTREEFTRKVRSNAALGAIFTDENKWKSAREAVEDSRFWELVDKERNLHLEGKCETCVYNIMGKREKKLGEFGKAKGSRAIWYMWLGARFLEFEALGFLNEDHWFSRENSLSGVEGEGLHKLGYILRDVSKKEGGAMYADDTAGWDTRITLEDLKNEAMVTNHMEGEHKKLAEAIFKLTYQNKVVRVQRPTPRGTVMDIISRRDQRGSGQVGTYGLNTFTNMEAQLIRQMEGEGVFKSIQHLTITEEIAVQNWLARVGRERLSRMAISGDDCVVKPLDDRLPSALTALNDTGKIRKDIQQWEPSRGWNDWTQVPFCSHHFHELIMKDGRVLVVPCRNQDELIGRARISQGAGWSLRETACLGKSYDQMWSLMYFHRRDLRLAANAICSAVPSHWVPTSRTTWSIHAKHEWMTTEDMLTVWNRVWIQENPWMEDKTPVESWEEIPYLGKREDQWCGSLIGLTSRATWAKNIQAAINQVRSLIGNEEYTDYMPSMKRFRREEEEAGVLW
# assay name: Dengue-2 NS5 methyltransferase inhibitors, primary screen, biochemical, confirmation dose response (AID 588689)
# Format: functional
The source made the active and inactive calls.
Hi there, I'd appreciate the recorded IC50 for every entry that follows.

Quick check: IC50 of O=C(NCc1cccs1)c1nc2c(nnn2Cc2ccccc2Cl)c(=O)[nH]1 ?
51.8 µM (active)

COc1cc(/C=C2\SC(NS(=O)(=O)c3ccccc3)=NC2=O)c([N+](=O)[O-])cc1OC , same question.
43.4 µM (active)

Please answer likewise for COc1ccc(Cl)cc1/C=C1/C(=O)ON=C1C
> 100 µM (active)

Now this one: CCOC(=O)CC1=NN(c2ccccc2)C(=O)/C1=C\c1ccc(OC)cc1OC
27.1 µM (active)

Follow-up entry: CCN(CCCNc1cc2c(c(N)c1S(=O)(=O)O)C(=O)c1ccccc1C2=O)c1ccccc1
31.6 µM (active)

Would you mind doing CC1=NN(c2ccccc2)C(=O)C1=Cc1ccccc1 as well?
59.4 µM (active)

Then this molecule: Cc1ccc(O)c(NC2=C(Cl)C(=O)N(Cc3ccccc3)C2=O)c1
> 100 µM (active)
